Molecular target: Proto-oncogene tyrosine-protein kinase ROS (Homo sapiens);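 note: value given is the mean percent inhibition of ROS kinase activity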
Conditions: at 1 µM
Exercise: for every item that follows, state its recorded inhibition.
Quick reminder: number only, in %, skip the unit.

Recorded inhibition for `Clc1ccc(CNc2nccc(-c3cnn4ncccc34)n2)cc1` on Proto-oncogene tyrosine-protein kinase ROS (Homo sapiens) was 6.59

`COc1cc2ncn(-c3cc(OCc4cccs4)c(C(N)=O)s3)c2cc1OC` tested on Proto-oncogene tyrosine-protein kinase ROS (Homo sapiens) gave inhibition: 30.5

Hey, Proto-oncogene tyrosine-protein kinase ROS (Homo sapiens) data for `COc1cccc(-n2cnc3c(N/N=C/c4ccncc4)ncnc32)c1` : inhibition came out at 4.38

inhibition value, target or system Proto-oncogene tyrosine-protein kinase ROS (Homo sapiens), for `COc1ccc2ncn(-c3cc(O[C@H](C)c4ccccc4Cl)c(C(N)=O)s3)c2c1` : 10.9

Hey, Proto-oncogene tyrosine-protein kinase ROS (Homo sapiens) data for `NC(=O)Cc1ccccc1Oc1nccc(-c2c(-c3ccc(F)cc3)ncn2C2CCNCC2)n1` : inhibition came out at 7.32

Record for `Cc1ccc(C(=O)NC2CCC2)cc1-c1ccc(C(=O)NCC2CC2)cc1` under target or system Proto-oncogene tyrosine-protein kinase ROS (Homo sapiens): inhibition reported as 2.72

Form field, inhibition with Proto-oncogene tyrosine-protein kinase ROS (Homo sapiens), item `O=C(Nc1n[nH]c2cc(-c3ccccc3)ccc12)C1CC1` : 7.64

Reported Proto-oncogene tyrosine-protein kinase ROS (Homo sapiens) inhibition for item `O=C1Nc2ccc(I)cc2C1=Cc1cc(Br)c(O)c(Br)c1` was 8.1

Proto-oncogene tyrosine-protein kinase ROS (Homo sapiens) inhibition of `Cc1nnc(-c2ccc(C)c(-c3ccc(C(=O)NCc4ccc(Cl)cc4)cc3)c2)o1` is 7.75

Record `O=C1Nc2ccccc2/C1=C/Nc1ccc(-n2cncn2)cc1` has Proto-oncogene tyrosine-protein kinase ROS (Homo sapiens) inhibition equal to 8.39
